- TARGET_SYSTEM: T1, recombinant human HER2 extracellular domain protein (human, UniProt P04626 23-652)
- T1 construct: range 23-652; Range is printed for the immunogen/panning protein; also called ErbB2; recombinant HER2 protein
- ASSAY_OVERVIEW: BLI, Protein A capture
Field: Kd. Provide a value for each of the binders that follow.
Give just the numeric value; nM need not be written.

Exercise: What does the data say about its Kd? Entry: 2126-Hu-H44 (antibody, IgG1, V domains shown, IgG1/Cκ) VH: QVQLVQSGSELKKPGASVKVSCKASGYTFTDYSMHWVRQAPGQGLEWMGWINTETGEPTYADDFKGRFVFSLDTSVSTAYLQLSSLKAEDTAVYFCVRVGRYDYAMDYWGQGTTVTVSS VL: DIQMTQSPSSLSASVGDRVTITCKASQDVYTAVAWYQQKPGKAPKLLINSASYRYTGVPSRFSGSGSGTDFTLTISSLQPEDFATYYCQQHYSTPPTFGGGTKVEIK
Key: 5.3

Exercise: Here is the next binder: 2126-Hu-L18 (antibody, IgG1, V domains shown, IgG1/Cκ) VH: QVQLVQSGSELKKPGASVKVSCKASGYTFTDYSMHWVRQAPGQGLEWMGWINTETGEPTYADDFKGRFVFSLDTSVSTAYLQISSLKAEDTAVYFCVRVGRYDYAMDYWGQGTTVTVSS VL: DIQMTQSPSSLSASVGDRVTITCKASQDVYTAVAWYQQKPGKAPKLLINSASYRYTGVPSRFSGSGSGTDFTLTISSLQPEDFATYYCQQSYSTPPTFGGGTKVEIK
Key: 8.83

Exercise: Here is the next binder: 2126-Hu-L02 (antibody, IgG1, V domains shown, IgG1/Cκ) VH: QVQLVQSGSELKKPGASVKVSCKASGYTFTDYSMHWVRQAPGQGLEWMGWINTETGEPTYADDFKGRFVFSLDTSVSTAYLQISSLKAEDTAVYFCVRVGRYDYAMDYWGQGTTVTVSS VL: DIQMTQSPSSLSASVGDRVTITCRASQDVYTAVAWYQQKPGKAPKLLINSASYRYTGVPSRFSGSGSGTDFTLTISSLQPEDFATYYCQQHYSTPPTFGGGTKVEIK
Key: 5.58
